// IC50 collected for 11β-HSD1 (Homo sapiens (Human), UniProt P28845)
Answers without a unit are incomplete; give the number and then its unit.

[[record]]
query_smiles = "Cc1nc2cc(-c3ccc([C@H](C)N4CC[C@](CC(C)(C)O)(c5ccccc5)OC4=O)cc3)ccn2n1"
metric_name = "IC50"
reported_measurement = "0.031 µM"


Next up:
Item under review: COc1nc2ccc(-c3ccc([C@H](C)N4CC[C@](CC(C)(C)O)(c5ccccc5)OC4=O)cc3)cn2n1 . Reported IC50?
0.054 µM

Hello, the source for this data is patent US8598163B2, in case you need it.
